Let's look at some compounds and their measured MIC.
# Test system: Mycobacterium tuberculosis
# assay.info: Antimycobacterial activity against clinical isolates of multidrug resistant/extensively drug resistant Mycobacterium tuberculosis Praha 4 after 21 days by micromethod
# Assay type: functional
# condition: Praha 4, 504 h

Worked cases, MIC given:
1) O=[N+]([O-])c1cc(-c2nnn(Cc3cccc(F)c3)n2)cc([N+](=O)[O-])c1; 1 µM
2) Cc1ccc(Cn2nnc(-c3cc([N+](=O)[O-])cc([N+](=O)[O-])c3)n2)cc1; 0.12 µM
3) O=[N+]([O-])c1cc(-c2nnn(Cc3ccc(F)cc3)n2)cc([N+](=O)[O-])c1; 1 µM
4) COc1cccc(-n2nnnc2SCn2nnc(-c3cc([N+](=O)[O-])cc([N+](=O)[O-])c3)n2)c1; 0.03 µM
5) O=[N+]([O-])c1cc(-c2nnn(CSc3nnnn3-c3ccc(Cl)c(Cl)c3)n2)cc([N+](=O)[O-])c1; 0.03 µM

So for `O=[N+]([O-])c1cc(-c2nnn(Cc3cccc(Br)c3)n2)cc([N+](=O)[O-])c1` , the logged MIC turned out to be 1 µM

So for `O=[N+]([O-])c1cc(-c2nnn(CSc3nnnn3-c3ccc(Br)cc3)n2)cc([N+](=O)[O-])c1` , the logged MIC turned out to be 0.03 µM

So for `O=[N+]([O-])c1cc(-c2nnn(CSc3nnnn3-c3ccc(Cl)cc3)n2)cc([N+](=O)[O-])c1` , the logged MIC turned out to be 0.03 µM

So for `O=[N+]([O-])c1cc(-c2nnn(Cc3ccccc3)n2)cc([N+](=O)[O-])c1` , the logged MIC turned out to be 1 µM

* * *

# System: Mycobacterium tuberculosis
# assay.info: Antimycobacterial activity against clinical isolates of multidrug resistant/extensively drug resistant Mycobacterium tuberculosis 8666/2010 after 21 days by micromethod
# Assay type: functional
# condition: 8666/2010, 504 h
readout: MIC (µM)
Output spec: scalar in µM, unitless text.

1. COc1ccc(Cn2nnc(-c3cc([N+](=O)[O-])cc([N+](=O)[O-])c3)n2)cc1; 0.03
2. Cc1ccc(Cn2nnc(-c3cc([N+](=O)[O-])cc([N+](=O)[O-])c3)n2)cc1; 0.12
3. O=[N+]([O-])c1cc(-c2nnn(Cc3cccc(F)c3)n2)cc([N+](=O)[O-])c1; 1
4. O=[N+]([O-])c1cc(-c2nnn(Cc3ccc(F)cc3)n2)cc([N+](=O)[O-])c1; 0.5

Next up:
So for `O=[N+]([O-])c1cc(-c2nnn(Cc3cccc(Br)c3)n2)cc([N+](=O)[O-])c1` , the logged MIC turned out to be 0.5

* * *

# Test system: Mycobacterium tuberculosis
# assay.info: Antimycobacterial activity against clinical isolates of multidrug resistant/extensively drug resistant Mycobacterium tuberculosis 7357/1998 after 21 days by micromethod
# Assay type: functional
# condition: 7357/1998, 504 h
readout: MIC (µM)
Output spec: scalar in µM, unitless text.

Worked cases, MIC given:
1. O=[N+]([O-])c1cc(-c2nnn(Cc3cccc(F)c3)n2)cc([N+](=O)[O-])c1; 1
2. O=[N+]([O-])c1cc(-c2nnn(CSc3nnnn3-c3ccc(Br)cc3)n2)cc([N+](=O)[O-])c1; 0.03
3. O=[N+]([O-])c1cc(-c2nnn(Cc3cccc(Br)c3)n2)cc([N+](=O)[O-])c1; 0.5
4. O=[N+]([O-])c1cc(-c2nnn(Cc3ccccc3)n2)cc([N+](=O)[O-])c1; 1
5. O=[N+]([O-])c1cc(-c2nnn(CSc3nnnn3-c3ccc(Cl)cc3)n2)cc([N+](=O)[O-])c1; 0.03
6. O=[N+]([O-])c1cc(-c2nnn(Cc3ccc(F)cc3)n2)cc([N+](=O)[O-])c1; 0.5

Record `O=[N+]([O-])c1cc(-c2nnn(CCCCSc3nnnn3-c3ccc(Br)cc3)n2)cc([N+](=O)[O-])c1` / Mycobacterium tuberculosis, MIC recorded as 0.25

Record `COc1cccc(-n2nnnc2SCn2nnc(-c3cc([N+](=O)[O-])cc([N+](=O)[O-])c3)n2)c1` / Mycobacterium tuberculosis, MIC recorded as 0.03
